- Test system: Plasmodium berghei
- testDetails: Screen against P. berghei liver stage (PbLuc), transformed with Luciferase, at 2uM
- Format: functional, HepG2
- testConditions: tested at 2 uM
In all, about 68,000 compounds went through this assay and about 2,700 (4%) showed an effect of 50% or more. This is one part of a sample in which strong results are shown more often than they occur.
Measured INHIBITION of individual entries
Quick reminder: number only, in %, skip the unit.

# molecule, INHIBITION, %
measured = [
    ("O=C(c1ccon1)N1CCCCC1c1nc2cc(F)ccc2[nH]1 (stereo unspecified)", 14.79),
    ("Cc1nc(-c2ccccc2)cc2nn(CC(N)=O)c(=O)n12", 20.88),
    ("O=C(c1ccc(S(=O)(=O)N2CCSCC2)cc1)N1CCC(O)C1 (stereo unspecified)", -57.76),
]

# query: INHIBITION of entry COC1CCN(S(=O)(=O)N2CCCC(c3cccc(C(=O)O)c3)C2)CC1 (stereo unspecified)
57.59

# query: INHIBITION of entry `COc1ccc(-c2cc3nn(CC(=O)NC(C)C)c(=O)n3c(C)n2)cc1`
22.96

# query: INHIBITION of entry `Cc1cc(C)n(CCCC(=O)N2CCc3ncc(Cl)cc3C2)n1`
51.99

###

Measured INHIBITION of individual entries
- System: Plasmodium berghei
- testDetails: Screen against P. berghei liver stage (PbLuc), transformed with Luciferase, at 2uM
- Type: functional, HepG2
- testConditions: tested at 2 uM
About 2,700 (4%) of roughly 68,000 compounds showed an effect of 50% or more. This is one part of a sample in which strong results are shown more often than they occur.
Quick reminder: number only, in %, skip the unit.

Would you please look over these solved cases?
# compound, endpointValue
measured = [
    ("CCC(C)N1CCC2(CC1)CN(c1cncnc1)C(=O)CO2 (stereo not given)", 51.55),
    ("CCc1nc2n(n1)CC(NCc1cn(C)nc1-c1cccnc1)CC2 (stereo not given)", 54.29),
    ("COc1cccc2c1OCC(CNC(=O)Cc1csc(C(C)=O)c1)C2 (stereo not given)", 19.13),
    ("Cn1cnnc1CNC(=O)C1CCCN(Cc2ccccc2)C1 (stereo not given)", 6.33),
    ("Cc1noc(C(C)C)c1C(=O)NCCCN1CCCCCC1=O", 77.68),
]

# query: INHIBITION of entry CCCn1cc(CNCC(c2ccc(C)s2)N2CCOCC2)cn1 (stereo not given)
10.46

# query: INHIBITION of entry Cc1nnc(CN(Cc2ccc3c(c2)OCO3)C2CCC(C)CC2)o1 (stereo not given)
-37.84

# query: INHIBITION of entry `CCc1noc(-c2ccc(SCC(=O)O)nc2)n1`
47.9

# query: INHIBITION of entry `O=C(O)c1cnc2c(cnn2C2CCCC2)c1`
-9.71

# query: INHIBITION of entry `Cc1noc(C)c1C(=O)NCCN1CCOCC1`
63.46

# query: INHIBITION of entry `Cc1noc(C(C)C)c1C(=O)NCCCN1CCCC1`
-75.02

# query: INHIBITION of entry `CS(=O)(=O)NC(=O)c1cnc2c(cnn2C2CCCC2)c1`
64.35

# query: INHIBITION of entry CC(O)CN1CCN(Cc2nnc(C3CC3)o2)CC1 (stereo not given)
7.54

# query: INHIBITION of entry `CCS(=O)(=O)N1CCC2(CC1)CN(c1cncnc1)C(=O)CO2`
-28.81

# query: INHIBITION of entry CC(C)CN1CCC2(Cc3ccccc3NC2=O)C1 (stereo not given)
-1.69

# query: INHIBITION of entry O=C(NC1CCC(O)CC1)c1cnc2c(cnn2C2CCCC2)c1 (stereo not given)
38.49

# query: INHIBITION of entry CC1CN(Cc2noc(C3CC3)n2)CCN1Cc1nccn1C (stereo not given)
14.82

# query: INHIBITION of entry `Cn1cc(CN2C[C@@H]3COC[C@]3(CNC(=O)c3ccsc3)C2)cn1`
9.79

# query: INHIBITION of entry Cn1cc(CNC2CCc3ncnn3C2)c(-c2cccnc2)n1 (stereo not given)
13.53

# query: INHIBITION of entry `Cc1nnc(CN(Cc2ccc(Cl)c(Cl)c2)C(C)C)o1`
55.36

Origin of values: ChEMBL document CHEMBL4513216
